Target: casein kinase 2 (CK2α1) (Homo sapiens, UniProt P68400)
Construct: gene CSNK2A1; recombinant CK2α1
Sequence (P68400 whole entry): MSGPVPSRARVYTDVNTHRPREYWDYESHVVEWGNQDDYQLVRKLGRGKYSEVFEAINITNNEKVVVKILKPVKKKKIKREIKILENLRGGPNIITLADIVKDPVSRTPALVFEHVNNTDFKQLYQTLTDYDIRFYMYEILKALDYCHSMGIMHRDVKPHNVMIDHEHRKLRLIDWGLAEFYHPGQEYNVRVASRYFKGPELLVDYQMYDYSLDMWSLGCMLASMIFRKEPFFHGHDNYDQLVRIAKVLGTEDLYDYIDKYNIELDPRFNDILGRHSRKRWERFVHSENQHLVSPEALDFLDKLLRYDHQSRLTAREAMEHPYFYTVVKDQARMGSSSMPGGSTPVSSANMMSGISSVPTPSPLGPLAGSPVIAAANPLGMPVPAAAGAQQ
Assay: cell-free ADP-Glo kinase assay with recombinant CK2α[…] and casein, […] ATP
Type: biochemical
assay_endpoint: IC50

1. Cc1cc(O)cc2oc(=O)c3c(O)cc(O)cc3c12: 707 nM

====

Target: casein kinase 2 (CK2α1) (Homo sapiens, UniProt P68400)
Construct: gene CSNK2A1; recombinant CK2α1
Experiment: cell-free ADP-Glo kinase assay with recombinant CK2α[…] and casein, […] ATP
Assay type: biochemical
Conditions: read-out: IC50
assay_endpoint: IC50 (µM)

1. O=C1CC[C@]2(O)c3c(ccc(O)c31)-c1ccc(O)c3c1C2[C@H]1O[C@H]1C3=O (stereo partly shown): 5.1

This collection of values is drawn from paper PMC7303061.
